The measurements presented in this section are drawn from patent US20240092761A1.

biological target: CDK2/Cyclin E1 full length (Homo sapiens (Human)); assay: CDK2/Cyclin E1 Full Length ADP-Glo Kinase Assay; format: biochemical; conditions: 20 uM ATP, read-out: CDK2/ CyclinE1 IC50
MEASUREMENT TYPE: IC50

// solved cases for IC50 follow
>>> observed_value("CS(=O)(=O)N1CCC(Nc2ncc3cccc(C4CCCC4)c3n2)CC1")
"< 0.2 µM"
>>> observed_value("CN1CC2(CCN(c3cc(C(F)F)cc4cnc(Nc5ccc6c(c5)CN(S(C)(=O)=O)C6)nc34)C2)C1")
"< 0.2 µM"
>>> observed_value("CS(=O)(=O)N1Cc2ccc(Nc3ncc4cc(C(F)F)cc(N5CC6(C5)CN(C5CC5)C6)c4n3)cc2C1")
"< 0.2 µM"
>>> observed_value("CC(=O)N1CCC2(CCN(c3cccc4cnc(NC5CCN(S(C)(=O)=O)CC5)nc34)C2)C1 (stereo not shown)")
"< 0.2 µM"

[Q] Please report IC50 for the following molecule: CS(=O)(=O)N1CCC(Nc2ncc3cccc(N4CC5(CNCC5(F)F)C4)c3n2)CC1
[A] < 0.2 µM

[Q] Please report IC50 for the following molecule: CS(=O)(=O)N1CCC(Nc2ncc3cccc(N4CC5(CCS5(=O)=O)C4)c3n2)CC1
[A] < 0.2 µM

[Q] Please report IC50 for the following molecule: O=S(=O)(CC1CCC1)N1CCC(Nc2ncc3cc(C(F)F)cc(N4CC5(CCNC5)C4)c3n2)CC1
[A] < 0.2 µM

[Q] Please report IC50 for the following molecule: CC(=O)N1CC2(CCN(c3cccc4cnc(NC5CCN(S(C)(=O)=O)CC5)nc34)C2)C1
[A] 0.2 to 0.5 µM

[Q] Please report IC50 for the following molecule: CN1CC2(CCN(c3cc(C(F)F)cc4cnc(NC5CCN(S(=O)(=O)C6CC6)CC5)nc34)C2)C1
[A] < 0.2 µM

[Q] Please report IC50 for the following molecule: CC(=O)N1CCC2(CCN(c3cc(C(F)F)cc4cnc(NC5CCN(S(C)(=O)=O)CC5)nc34)C2)C1 (stereo not shown)
[A] < 0.2 µM

[Q] Please report IC50 for the following molecule: CC(=O)N1CCC2(CCN(c3cc(C(F)F)cc4cnc(Nc5cnn(C(C)C)c5)nc34)C2)C1 (stereo not shown)
[A] 0.5 to 2 µM

* * *

# key: entry, value: IC50
system: OVCAR-3 cells; test: Cell Growth Inhibition, OVCAR-3 (CellTiterGlo, 6 days); type: cell-based; conditions: Homo sapiens, 144 h; OVCAR-3, 6-day treatment, CellTiterGlo 2.0

// solved cases for IC50 follow
>>> observed_value("O=S(=O)(C1CC1)N1CCC(Nc2ncc3cc(C(F)F)cc(N4CC5(CNCC5F)C4)c3n2)CC1 (stereo not shown)")
"0.2 to 0.5 µM"
>>> observed_value("O=S(=O)(CC1CC1)N1CCC(Nc2ncc3cc(C(F)F)cc(N4CC5(CCNC5)C4)c3n2)CC1")
"0.2 to 0.5 µM"
>>> observed_value("CS(=O)(=O)N1CCC(Nc2ncc3cc(C(F)F)cc(N4CC5(C4)CN(C4CC4)C5)c3n2)CC1")
"0.5 to 2 µM"

[Q] Please report IC50 for the following molecule: CN1CCC2(C1)CN(c1cccc3cnc(NC4CCN(S(C)(=O)=O)CC4)nc13)C2
[A] > 2 µM

[Q] Please report IC50 for the following molecule: CN1CC2(CCN(c3cc(C(F)F)cc4cnc(NC5CCN(c6ncc(C7CC7)cn6)CC5)nc34)C2)C1
[A] > 2 µM

[Q] Please report IC50 for the following molecule: COCCN1CCC2(C1)CN(c1cccc3cnc(NC4CCN(S(C)(=O)=O)CC4)nc13)C2
[A] > 2 µM

[Q] Please report IC50 for the following molecule: CN1Cc2ccc(Nc3ncc4cc(C(F)F)cc(N5CCC6(CN(C)C6)C5)c4n3)cc2C1
[A] 0.5 to 2 µM

[Q] Please report IC50 for the following molecule: CS(=O)(=O)N1CCC(Nc2ncc3cc(C(F)F)cc(C4CC5(CCN(CCC(F)(F)F)C5)C4)c3n2)CC1 (stereo not shown)
[A] 0.5 to 2 µM

[Q] Please report IC50 for the following molecule: CS(=O)(=O)N1CCC(Nc2ncc3cc(C(F)F)cc(C4CC5(CCN(CC(F)(F)CO)C5)C4)c3n2)CC1 (stereo not shown)
[A] 0.5 to 2 µM

[Q] Please report IC50 for the following molecule: COCCN1CC2(C1)CN(c1cccc3cnc(NC4CCN(S(C)(=O)=O)CC4)nc13)C2
[A] > 2 µM

[Q] Please report IC50 for the following molecule: O=S(=O)(N1CCC(Nc2ncc3cc(C(F)F)cc(C4CC5(CCNC5)C4)c3n2)CC1)C1(C(F)F)CC1 (stereo not shown)
[A] < 0.2 µM

[Q] Please report IC50 for the following molecule: CS(=O)(=O)N1CCC(Nc2ncc3cc(C(F)(F)F)cc(N4CC5(CNCC5(F)F)C4)c3n2)CC1
[A] > 2 µM

[Q] Please report IC50 for the following molecule: O=S(=O)(C1CC1)N1CCC(Nc2ncc3cc(C(F)F)cc(C4CC5(C4)CN(CC(F)F)C5)c3n2)CC1
[A] 0.2 to 0.5 µM
